- Target desc: CD3 (antigen of the binding affinity table of Example 1) (UniProt P07766)
- Experiment description: kinetic fit with two-state parameters; method not given
Recorded Kd by entry
Don't forget the unit after the number, please.

Past entries and their recorded results:
Value of Kd reported for the binder H4L3 (antibody, V domains shown) VH: QVQLQQSGAEVKKPGASVKMSCKASGYTFTRYTMHWVRQAPGQGLEWIGYINPSRGYTNYNQKFKDRVTLTTDTSISTAYMELSRLRSDDTAVYYCARYYDDHYSLDYWGQGTTLTVSS VL: DIQLTQSPSSLSASVGDRVTITCSASSSVSYMNWYQQKPGKAPKLLIYDTSKLASGVPSRFSGSGSGTDYTLTISSLQPEDFATYYCQQWSSNPFTFGSGTKLEINR is 14.7 nM

Value of Kd reported for the binder H4L1 (antibody, V domains shown) VH: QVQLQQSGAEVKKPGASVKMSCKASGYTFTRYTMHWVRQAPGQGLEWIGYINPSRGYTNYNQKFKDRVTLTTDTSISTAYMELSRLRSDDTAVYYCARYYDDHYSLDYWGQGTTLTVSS VL: DIQMTQSPSSLSASVGDRVTMTCSASSSVSYMNWYQQKPGKAPKRLIYDTSKLASGVPSRFSGSGSGTDFTLTISSLQPEDFATYYCQQWSSNPFTFGSGTKLEINR is 7.49 nM

Further cases:
Value of Kd reported for the binder H2L5 (antibody, V domains shown) VH: QVQLQQSGAEVAKPGASVKVSCKASGYTFTRYTMHWVRQAPGQGLEWMGYINPSRGYTNYNQKFKDRATLTRDKSISTAYMELSRLRSDDTAVYYCARYYDDHYSLDYWGQGTTLTVSS VL: DIQMTQSPSSLSASVGDRVTITCSASSSVSYMNWYQQKPGKAPKRWIYDTSKLASGVPSRFSGSGSGTDFTLTISSLQPEDFATYYCQQWSSNPFTFGSGTKLEINR is 2.55 nM
